Reference for the values: patent US20260028354A1

# target entity: ER in MCF-7 cells (Homo sapiens (Human))
# Sequence (P03372 whole entry): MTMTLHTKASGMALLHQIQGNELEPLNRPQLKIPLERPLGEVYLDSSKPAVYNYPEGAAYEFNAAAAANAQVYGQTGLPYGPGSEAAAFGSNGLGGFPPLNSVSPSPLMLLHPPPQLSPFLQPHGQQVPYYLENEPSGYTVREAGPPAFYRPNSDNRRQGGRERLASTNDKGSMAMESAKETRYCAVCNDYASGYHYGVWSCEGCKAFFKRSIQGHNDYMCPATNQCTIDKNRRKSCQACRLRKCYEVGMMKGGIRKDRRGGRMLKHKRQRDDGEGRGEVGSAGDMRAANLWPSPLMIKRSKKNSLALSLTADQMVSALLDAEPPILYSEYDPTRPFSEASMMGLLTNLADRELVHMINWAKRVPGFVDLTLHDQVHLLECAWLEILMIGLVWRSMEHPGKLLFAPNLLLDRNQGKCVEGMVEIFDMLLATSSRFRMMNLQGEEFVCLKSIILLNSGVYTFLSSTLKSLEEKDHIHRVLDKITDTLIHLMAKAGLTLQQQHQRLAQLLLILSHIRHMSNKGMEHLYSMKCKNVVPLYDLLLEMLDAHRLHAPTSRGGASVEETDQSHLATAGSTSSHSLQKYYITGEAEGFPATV
# protocol notes: In-cell Western (ICW) ER degradation assay in MCF-7 cells
# Assay type: cell-based
# condition label: MCF7, read-out: MCF7 Dmax, MCF-7, maximal ER degradation, 16 hrs treatment
reported property: Dmax

compound="O=C1CC[C@H](N2Cc3c(ccc4c3OCC43CCN(C[C@@H]4COC5(C4)CN(c4ccc([C@@H]6c7ccc(O)cc7CC[C@@H]6c6ccccc6)cc4)C5)CC3)C2=O)C(=O)N1 [Compound A75]" value_reported="50 to 75%"
compound="COc1cc(N2CCC(CN3CCC4(CC3)COc3cc5c(cc34)CN([C@H]3CCC(=O)NC3=O)C5=O)CC2)ccc1[C@@H]1c2ccc(O)cc2CC[C@@H]1c1ccccc1 [Compound A33]" value_reported="50 to 75%"
compound="O=C1CC[C@H](N2Cc3c4c(cc(Cl)c3C2=O)C2(CCN(C[C@@H]3CCC5(CCN(c6ccc([C@@H]7c8ccc(O)cc8CC[C@@H]7c7ccccc7)cc6)CC5)OC3)CC2)CO4)C(=O)N1 [Compound A233]" value_reported="> 75%"
compound="COc1cc(N2CCC3(CC2)CC(CN2CCC4(CC2)COc2c4ccc4c2CN([C@H]2CCC(=O)NC2=O)C4=O)CO3)ccc1[C@H]1c2ccc(O)cc2CC[C@H]1c1ccccc1 (some centres unmarked) [Compound A54]" value_reported="50 to 75%"
compound="O=C1CC[C@H](N2Cc3c(ccc4c3OCC43CCN(C[C@H]4COC5(C4)CN(c4ccc([C@@H]6c7ccc(O)cc7CC[C@@H]6c6ccccc6)cc4)C5)CC3)C2=O)C(=O)N1 [Compound A74]" value_reported="50 to 75%"
